- TARGET_UNDER_TEST: 5-HT3A receptor I71C (Homo sapiens, UniProt P46098, I66C)
- Construct: expressed in transfected cells; host or cells: HEK 293
- Sequence (P46098 24-478 I66C): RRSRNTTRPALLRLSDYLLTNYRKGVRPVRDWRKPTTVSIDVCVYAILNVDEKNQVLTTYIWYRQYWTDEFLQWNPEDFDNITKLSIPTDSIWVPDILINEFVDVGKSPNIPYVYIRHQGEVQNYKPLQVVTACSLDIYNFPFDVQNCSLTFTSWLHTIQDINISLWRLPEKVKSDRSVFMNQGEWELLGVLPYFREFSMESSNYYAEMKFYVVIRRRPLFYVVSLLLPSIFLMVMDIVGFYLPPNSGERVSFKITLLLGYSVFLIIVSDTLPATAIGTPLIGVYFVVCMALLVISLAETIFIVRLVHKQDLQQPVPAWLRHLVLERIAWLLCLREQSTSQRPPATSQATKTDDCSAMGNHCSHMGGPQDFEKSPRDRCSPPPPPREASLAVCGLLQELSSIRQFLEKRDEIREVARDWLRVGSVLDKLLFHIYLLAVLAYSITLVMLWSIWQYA
- ASSAY_NOTES: Saturation binding of [^3H]VUF10166 at 5-HT3A receptor mutant
- SETUP_CONDITIONS: I71C; read-out: Kd (nM) Mean ± SEM
METRIC_NAME: Kd
Could you give the number and then its unit, please?

IN: Item under review: CN1CCN(c2nc3ccccc3nc2Cl)CC1 [[^3H]VUF10166] . Reported Kd?
OUT: 0.23 nM

---

// reported pIC50 per item
- TARGET_UNDER_TEST: 5-HT3AB receptors (Homo sapiens, UniProt O95264+P46098)
- Sequence (P46098 24-478): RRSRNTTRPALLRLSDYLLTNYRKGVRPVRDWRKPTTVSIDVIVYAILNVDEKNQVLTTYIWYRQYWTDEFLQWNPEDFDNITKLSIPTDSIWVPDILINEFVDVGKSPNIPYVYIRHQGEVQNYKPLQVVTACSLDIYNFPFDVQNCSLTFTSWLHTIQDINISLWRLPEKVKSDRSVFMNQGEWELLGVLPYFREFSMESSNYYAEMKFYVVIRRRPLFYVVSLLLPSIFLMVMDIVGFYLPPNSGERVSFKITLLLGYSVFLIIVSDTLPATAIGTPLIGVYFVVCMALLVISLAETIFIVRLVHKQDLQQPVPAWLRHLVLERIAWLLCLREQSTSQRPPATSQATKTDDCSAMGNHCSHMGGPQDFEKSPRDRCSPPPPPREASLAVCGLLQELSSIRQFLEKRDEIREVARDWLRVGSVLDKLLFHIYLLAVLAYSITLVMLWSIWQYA
- Sequence (O95264 22-441): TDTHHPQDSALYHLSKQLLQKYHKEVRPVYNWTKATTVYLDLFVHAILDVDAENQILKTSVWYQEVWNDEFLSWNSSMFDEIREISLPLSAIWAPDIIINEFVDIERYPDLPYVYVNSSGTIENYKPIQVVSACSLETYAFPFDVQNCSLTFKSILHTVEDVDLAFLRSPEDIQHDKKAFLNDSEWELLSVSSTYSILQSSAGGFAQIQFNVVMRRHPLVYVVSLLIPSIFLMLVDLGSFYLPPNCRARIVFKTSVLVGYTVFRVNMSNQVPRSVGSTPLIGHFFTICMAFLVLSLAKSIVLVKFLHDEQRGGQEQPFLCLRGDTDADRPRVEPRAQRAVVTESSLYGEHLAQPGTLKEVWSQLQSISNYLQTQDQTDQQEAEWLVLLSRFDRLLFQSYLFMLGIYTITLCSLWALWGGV
- ASSAY_NOTES: Competition binding with [^3H]VUF10166 at 5-HT3AB receptors
As a rule, pIC50 stands for the negative log10 of the concentration, concentration in M.

Field: example entries. Status: answers known.
IN: Give its pIC50 value. Item: CN1CCC[C@H]1c1cccnc1 [Nicotine]
OUT: 6.76

IN: Let us now turn to COc1cc2c3cc1Oc1cc(ccc1O)C[C@@H]1c4c(cc(OC)c(O)c4Oc4ccc(cc4)C[C@@H]3N(C)CC2)CC[N+]1(C)C [d-Tubocurarine]
OUT: 5.44

Continuing:
IN: # query: pIC50 of entry O=C1C[C@@H]2OCC=C3CN4CC[C@]56c7ccccc7N1[C@H]5[C@H]2[C@H]3C[C@H]46 [Strychnine]
OUT: 6.26
